Reported Ki values, UniProt:P14842.
Sequence (P14842 whole entry): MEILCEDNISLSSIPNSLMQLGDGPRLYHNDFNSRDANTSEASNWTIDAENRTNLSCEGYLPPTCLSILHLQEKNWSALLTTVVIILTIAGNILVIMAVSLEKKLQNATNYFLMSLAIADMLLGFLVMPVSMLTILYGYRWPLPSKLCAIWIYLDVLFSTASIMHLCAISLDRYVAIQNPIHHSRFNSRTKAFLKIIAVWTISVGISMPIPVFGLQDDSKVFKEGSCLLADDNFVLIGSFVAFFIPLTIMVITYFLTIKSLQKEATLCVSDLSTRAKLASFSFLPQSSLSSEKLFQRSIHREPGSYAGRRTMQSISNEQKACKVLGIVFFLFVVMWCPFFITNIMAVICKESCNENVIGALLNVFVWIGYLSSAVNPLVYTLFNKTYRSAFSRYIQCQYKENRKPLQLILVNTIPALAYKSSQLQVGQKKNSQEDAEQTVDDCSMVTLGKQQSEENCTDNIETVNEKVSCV
measured_parameter: Ki

| chemical_smiles | recorded_result |
| --- | --- |
| O=C1/C(=C/c2ccccc2)c2ccccc2N1CCCN1CCN(c2cccc(Cl)c2)CC1 | 0.038 µM |
| O=C1/C(=C/c2cccs2)c2ccccc2N1CCCN1CCN(c2cccc(Cl)c2)CC1 | 0.064 µM |
| O=C1/C(=C\c2ccc(Cl)cc2)c2ccccc2N1CCCN1CCN(c2cccc(Cl)c2)CC1 | 0.366 µM |
| O=C1/C(=C\c2cccs2)c2ccccc2N1CCCN1CCN(c2cccc(Cl)c2)CC1 | 0.138 µM |
| O=C1/C(=C\c2ccccc2)c2ccccc2N1CCCN1CCN(c2cccc(Cl)c2)CC1 | 0.056 µM |

* * *

Observed Ki for 5-hydroxytryptamine receptor 1A (Rattus norvegicus), reported per entry below.
measured_parameter: Ki (nM)

| chemical_smiles | limit_qualifier | recorded_result |
| --- | --- | --- |
| O=C1Cc2ccccc2N1CCCN1CCN(c2cccc(Cl)c2)CC1 | = | 29 |
| O=C1/C(=C\c2ccc(Cl)cc2)c2ccccc2N1CCCN1CCN(c2cccc(Cl)c2)CC1 | = | 204 |
| O=C1/C(=C/c2cccnc2)c2ccccc2N1CCCN1CCN(c2cccc(Cl)c2)CC1 | = | 101 |
| O=C1/C(=C/c2cccs2)c2ccccc2N1CCCN1CCN(c2cccc(Cl)c2)CC1 | > | 50000 |
| O=C(c1ccc(F)cc1)C1CCN(CCn2c(=O)[nH]c3ccccc3c2=O)CC1 | = | 1930 |
